Overview of reported E1/2 across a group of compounds:
# test_description: Reduction potential E1/2 of the quinone nucleus of RIND compounds (Table I)
# Format: physicochemical
# run_parameters: quinone nucleus with H in place of the releasing group; aqueous emulsion, DMF, nonionic surfactant, phosphate buffer pH 7; standard calomel electrode

Reference set (8 entries):
{"columns": ["compound", "E1/2"],
 "data": [
  ["CN(CC1=C(c2cc(Cl)ccc2Cl)C(=O)C2=C(CCC2)C1=O)C(=O)Oc1ccc2c3c(cccc13)C(=O)C=C2 [XXXI]", "+236 mV"],
  ["CN(CC1=C(c2ccc(Br)cc2)C(=O)C2=C(CCCC2)C1=O)C(=O)Oc1ccc(N=Nc2ccc([N+](=O)[O-])cc2S(C)(=O)=O)c2c(NS(=O)(=O)c3cccc(S(N)(=O)=O)c3)cccc12 [XIV]", "+192 mV"],
  ["CC(C1=C(CN(C)C(=O)Oc2ccc(N=Nc3ccc([N+](=O)[O-])cc3S(C)(=O)=O)c3c(NS(=O)(=O)c4cccc(S(N)(=O)=O)c4)cccc23)C(=O)C(C(C)c2ccc([N+](=O)[O-])cc2)=C(CN(C)C(=O)Oc2ccc(N=Nc3ccc([N+](=O)[O-])cc3S(C)(=O)=O)c3c(NS(=O)(=O)c4cccc(S(N)(=O)=O)c4)cccc23)C1=O)c1ccc([N+](=O)[O-])cc1 (centres unmarked) [II]", "+236 mV"],
  ["CCCCCCCCCCC(=O)c1ccc(C2=C(CN(C)C(=O)Oc3ccc(N=Nc4ccc([N+](=O)[O-])cc4S(C)(=O)=O)c4c(NS(=O)(=O)c5cccc(S(N)(=O)=O)c5)cccc34)C(=O)C3=C(CCCC3)C2=O)cc1 [XII]", "+206 mV"],
  ["CC1CCC(C)C2=C1C(=O)C(CN(C)C(=O)Oc1ccc(N=Nc3ccc([N+](=O)[O-])cc3S(C)(=O)=O)c3c(NS(=O)(=O)c4cccc(S(N)(=O)=O)c4)cccc13)=C(c1ccccc1)C2=O (centres unmarked) [XXVII]", "+122 mV"],
  ["CN(CC1=C(c2ccccc2)C(=O)C2=C(CCC2)C1=O)C(=O)Oc1ccc(N=Nc2ccc([N+](=O)[O-])cc2S(C)(=O)=O)c2c(NS(=O)(=O)c3cccc(S(N)(=O)=O)c3)cccc12 [XX]", "+222 mV"],
  ["CCCCCCCCCCCCN(CC1=C(c2ccc(C#N)cc2)C(=O)C2=C(CCCC2)C1=O)C(=O)Oc1ccc(N=Nc2ccc([N+](=O)[O-])cc2S(C)(=O)=O)c2c(NS(=O)(=O)c3cccc(S(N)(=O)=O)c3)cccc12 [XVI]", "+220 mV"],
  ["CC1=C(C)C(=O)C(c2ccccc2)=C(CN(C)C(=O)Oc2ccc(N=Nc3ccc([N+](=O)[O-])cc3S(C)(=O)=O)c3c(NS(=O)(=O)c4cccc(S(N)(=O)=O)c4)cccc23)C1=O [XXXVI]", "+144 mV"]
]}

In: I would be grateful if you could share the reported E1/2 for CN(CC1=C(c2cccc([N+](=O)[O-])c2)C(=O)C2=C(CCCC2)C1=O)C(=O)Oc1ccc(N=Nc2ccc([N+](=O)[O-])cc2S(C)(=O)=O)c2c(NS(=O)(=O)c3cccc(S(N)(=O)=O)c3)cccc12 [V] .
Out: +214 mV

In: I would be grateful if you could share the reported E1/2 for CN(CC1=C(c2cc(Cl)ccc2Cl)C(=O)C2=C(CCC2)C1=O)C(=O)Oc1ccc(N=Nc2ccc([N+](=O)[O-])cc2S(C)(=O)=O)c2c(NS(=O)(=O)c3cccc(S(N)(=O)=O)c3)cccc12 [XXIV] .
Out: +236 mV

In: I would be grateful if you could share the reported E1/2 for CC(=O)c1ccc(C2=C(CN(C)C(=O)Oc3ccc(N=Nc4ccc([N+](=O)[O-])cc4S(C)(=O)=O)c4c(NS(=O)(=O)c5cccc(S(N)(=O)=O)c5)cccc34)C(=O)C3=C(CCCC3)C2=O)cc1 [XIII] .
Out: +212 mV

In: I would be grateful if you could share the reported E1/2 for CN(CC1=C(c2cc([N+](=O)[O-])cc([N+](=O)[O-])c2)C(=O)C2=C(CCCC2)C1=O)C(=O)Oc1ccc(N=Nc2ccc([N+](=O)[O-])cc2S(C)(=O)=O)c2c(NS(=O)(=O)c3cccc(S(N)(=O)=O)c3)cccc12 [XI] .
Out: +186 mV

In: I would be grateful if you could share the reported E1/2 for CN(CC1=C(c2ccc(C#N)cc2)C(=O)C2=C(CC=CC2)C1=O)C(=O)Oc1ccc(N=Nc2ccc([N+](=O)[O-])cc2S(C)(=O)=O)c2c(NS(=O)(=O)c3cccc(S(N)(=O)=O)c3)cccc12 [XVII] .
Out: +240 mV

In: I would be grateful if you could share the reported E1/2 for CN(CC1=C(c2ccccc2)C(=O)C2=C(CCC2)C1=O)C(=O)Oc1ccc2c3c(cccc13)C(=O)C=C2 [XXX] .
Out: +222 mV

In: I would be grateful if you could share the reported E1/2 for CN(CC1=C(c2ccc([N+](=O)[O-])cc2)C(=O)C2=C(CCCC2)C1=O)C(=O)Oc1ccc2c3c(cccc13)C(=O)C=C2 [XXXIII] .
Out: +236 mV

In: I would be grateful if you could share the reported E1/2 for CN(CC1=C(c2ccccc2)C(=O)C2=C(CCCC2)C1=O)C(=O)Oc1ccc(N=Nc2ccc([N+](=O)[O-])cc2S(C)(=O)=O)c2c(NS(=O)(=O)c3cccc(S(N)(=O)=O)c3)cccc12 [VI] .
Out: +180 mV

In: I would be grateful if you could share the reported E1/2 for CN(CC1=C(c2ccc(C(=O)O)cc2)C(=O)C2=C(CCCC2)C1=O)C(=O)Oc1ccc2c3c(cccc13)C(=O)C=C2 [RIND Compound XXXV] .
Out: +220 mV
